Listing of entries alongside the reported GI50.
- System: SN12C renal
- PROCEDURE_DETAILS: NCI tumour cell line growth inhibition, 384-well format

MOLECULE	STUDY_SYSTEM	GI50
O=C1CC(c2ccc(N3CCOCC3)cc2)(c2ccsc2)NC(=O)C1Sc1ccccc1Cl (centres undefined)	SN12C renal	4.53 µM
CCCN(CCC)C(=O)C1=Cc2ccc(-c3ccc(C(=O)N4CCCC4)cc3)cc2N=C(N)C1	SN12C renal	13.4 µM
C[C@@H]1CN(C(=O)c2ccc(NC(=O)c3cc(O[C@H](C)c4c(Cl)ccc(F)c4Cl)c(N)nn3)cc2)C[C@H](C)N1	SN12C renal	1.82 µM
Cn1nccc1Nc1nccc(-c2cc3c(s2)C(C)(C)N(CCN2CCOCC2)C3=O)n1	SN12C renal	39.2 µM

====

- System: HOP-62 NSCLC
- PROCEDURE_DETAILS: NCI tumour cell line growth inhibition, 384-well format
READOUT_NAME: TGI

COMPOUND	MEASURED_RESULT
O=C1CC(c2ccc(N3CCOCC3)cc2)(c2ccsc2)NC(=O)C1Sc1ccccc1Cl (centres undefined)	> 100 µM
C[C@@H]1CN(C(=O)c2ccc(NC(=O)c3cc(O[C@H](C)c4c(Cl)ccc(F)c4Cl)c(N)nn3)cc2)C[C@H](C)N1	7.03 µM
Cn1cncc1[C@@](N)(c1ccc(Cl)cc1)c1ccc2c(c1)c(-c1cccc(Cl)c1)cc(=O)n2C	8.68 µM
C=C(c1ccc(N(C)C)cc1)c1ccc(N(C)C)cc1	7.98 µM

====

- System: UO-31 renal
- PROCEDURE_DETAILS: NCI tumour cell line growth inhibition, 384-well format

MOLECULE	OUTPUT_UNIT	REPORTED_RELATION	TGI
Cn1cncc1[C@@](N)(c1ccc(Cl)cc1)c1ccc2c(c1)c(-c1cccc(Cl)c1)cc(=O)n2C	µM	=	9.77
O=C1CC(c2ccc(N3CCOCC3)cc2)(c2ccsc2)NC(=O)C1Sc1ccccc1Cl (centres undefined)	µM	>	100
CCCN(CCC)C(=O)C1=Cc2ccc(-c3ccc(C(=O)N4CCCC4)cc3)cc2N=C(N)C1	µM	=	21.1
Cn1nccc1Nc1nccc(-c2cc3c(s2)C(C)(C)N(CCN2CCOCC2)C3=O)n1	µM	>	100

====

Listing of entries alongside the reported TGI.
- Tested on: KM12 colon
- PROCEDURE_DETAILS: NCI tumour cell line growth inhibition, 384-well format
READOUT_NAME: TGI

COMPOUND	MEASURED_RESULT
Cn1cncc1[C@@](N)(c1ccc(Cl)cc1)c1ccc2c(c1)c(-c1cccc(Cl)c1)cc(=O)n2C	2.31 µM
O=C1CC(c2ccc(N3CCOCC3)cc2)(c2ccsc2)NC(=O)C1Sc1ccccc1Cl (centres undefined)	> 100 µM
C[C@@H]1CN(C(=O)c2ccc(NC(=O)c3cc(O[C@H](C)c4c(Cl)ccc(F)c4Cl)c(N)nn3)cc2)C[C@H](C)N1	5.37 µM
C=C(c1ccc(N(C)C)cc1)c1ccc(N(C)C)cc1	55.4 µM

====

- System: RXF 393 renal
- PROCEDURE_DETAILS: NCI tumour cell line growth inhibition, 384-well format
Listing of entries alongside the reported GI50.
READOUT_NAME: GI50

COMPOUND	MEASURED_RESULT
C=C(c1ccc(N(C)C)cc1)c1ccc(N(C)C)cc1	1330 nM
Cn1nccc1Nc1nccc(-c2cc3c(s2)C(C)(C)N(CCN2CCOCC2)C3=O)n1	> 100000 nM
O=C1CC(c2ccc(N3CCOCC3)cc2)(c2ccsc2)NC(=O)C1Sc1ccccc1Cl (centres undefined)	2580 nM
CCCN(CCC)C(=O)C1=Cc2ccc(-c3ccc(C(=O)N4CCCC4)cc3)cc2N=C(N)C1	2520 nM
